MEASUREMENT_NOTES: Pharmacokinetics assay in MiaPaca 2 tumor-bearing mice (plasma, tumor tissue, intestine)
Format: in vivo
MEASUREMENT_PARAMETERS: female, mouse, Tumor, oral 6 mg/kg
ASSAY_METRIC: Tmax (h)
Respond with the bare value in h.

Q: Tell me the measured Tmax of Nc1nc(N2CCC3(CC2)Cc2ccccc2[C@H]3N)c(F)nc1Sc1ccnc(N)c1Cl , please.
Result: 8

----------
MEASUREMENT_NOTES: Pharmacokinetics assay in MiaPaca 2 tumor-bearing mice (plasma, tumor tissue, intestine)
Format: in vivo
MEASUREMENT_PARAMETERS: female, mouse, Ileum, oral 6 mg/kg
ASSAY_METRIC: AUC(0-inf) (ng·h/mL)
Hi! Could you send only the number? It should be in ng·h/mL, unit omitted.

Q: What value of measured AUC(0-inf) is listed for Nc1nc(N2CCC3(CC2)Cc2ccccc2[C@H]3N)c(F)nc1Sc1ccnc(N)c1Cl ?
Result: 10000
